CC50: recorded values
Test system: IL-2 MALT1-dependent release in Jurkat cells
methodSummary: cells
Assay type: cell-based
protocolConditions: Homo sapiens, Jurkat, 24 h, read-out: CC50 (IL-2 MALT1-dependent release inhibition)

[
  {
    "compound": "Cc1cc(NC(=O)Nc2cnc3ccnn3c2C2CCCCC2)cnc1-c1noc(CCCC(=O)Nc2ccc3c(c2)CN(C2CCC(=O)NC2=O)C3=O)n1 (stereo not drawn) [Compound 123]",
    "CC50": "< 500 nM"
  },
  {
    "compound": "Cc1cc(NC(=O)Nc2cnc3ccnn3c2C2CCCCC2)cnc1-c1noc(CCCCCCN2CCN(c3ccc4c(c3)CN(C3CCC(=O)NC3=O)C4=O)CC2)n1 (stereo not drawn) [Compound 122]",
    "CC50": "< 500 nM"
  },
  {
    "compound": "Cc1cc(NC(=O)Nc2cnc3ccnn3c2C2CCC2)cnc1-c1noc(CCCCC(=O)N2CCN(c3ccc4c(c3)CN(C3CCC(=O)NC3=O)C4=O)CC2)n1 (stereo not drawn) [Compound 112]",
    "CC50": "> 5000 nM"
  }
]
